Exercise: state measured SDH for each of the compounds provided.
assayed_target: succinate dehydrogenase/complex II (SDH) (Rattus norvegicus, UniProt P21913+Q641Z9+Q6PCT8+Q920L2)
Construct: freshly isolated muscle mitochondria were assayed; from tissue; host or cells: rat skeletal muscle mitochondria (Wistar, Harlan Laboratories)
Sequence (Q920L2 35-656): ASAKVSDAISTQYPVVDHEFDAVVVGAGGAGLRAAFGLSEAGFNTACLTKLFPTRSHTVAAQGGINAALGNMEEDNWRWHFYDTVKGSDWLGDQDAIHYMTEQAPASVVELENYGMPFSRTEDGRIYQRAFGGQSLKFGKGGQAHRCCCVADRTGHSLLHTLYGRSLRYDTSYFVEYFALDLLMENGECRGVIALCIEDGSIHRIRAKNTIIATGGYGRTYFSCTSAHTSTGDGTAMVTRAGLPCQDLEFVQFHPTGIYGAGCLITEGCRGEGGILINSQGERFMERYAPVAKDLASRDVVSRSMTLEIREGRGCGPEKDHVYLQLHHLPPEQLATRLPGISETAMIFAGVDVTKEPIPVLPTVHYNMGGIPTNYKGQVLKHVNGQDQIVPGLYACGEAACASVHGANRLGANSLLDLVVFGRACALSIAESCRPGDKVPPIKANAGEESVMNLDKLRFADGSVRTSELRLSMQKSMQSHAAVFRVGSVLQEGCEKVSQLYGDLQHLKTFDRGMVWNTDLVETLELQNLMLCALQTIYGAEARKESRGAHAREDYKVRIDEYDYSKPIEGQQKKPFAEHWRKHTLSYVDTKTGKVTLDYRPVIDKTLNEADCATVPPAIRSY
Sequence (P21913 31-282): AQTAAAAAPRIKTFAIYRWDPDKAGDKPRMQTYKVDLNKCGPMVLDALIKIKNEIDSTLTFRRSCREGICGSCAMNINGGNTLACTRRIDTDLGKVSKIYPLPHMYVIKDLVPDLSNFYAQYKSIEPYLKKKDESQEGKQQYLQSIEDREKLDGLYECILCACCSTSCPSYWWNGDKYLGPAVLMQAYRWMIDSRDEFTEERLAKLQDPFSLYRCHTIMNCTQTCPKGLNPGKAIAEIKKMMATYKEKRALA
Sequence (Q641Z9 30-169 limits assumed): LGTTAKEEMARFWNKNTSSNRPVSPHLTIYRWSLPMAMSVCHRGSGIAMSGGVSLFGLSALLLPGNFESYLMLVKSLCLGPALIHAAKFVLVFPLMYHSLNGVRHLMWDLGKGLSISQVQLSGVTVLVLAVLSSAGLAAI
Sequence (Q6PCT8 57-159): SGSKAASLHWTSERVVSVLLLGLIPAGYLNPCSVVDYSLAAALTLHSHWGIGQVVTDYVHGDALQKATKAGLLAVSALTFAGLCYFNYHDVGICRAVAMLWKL
test_protocol: High-throughput screen: ROS production from succinate dehydrogenase/complex II (SDH)
Assay type: biochemical
condition_notes: Table 8; percent change in ROS from DMSO controls
One number for each entry.

O=C(Nc1ccccc1[N+](=O)[O-])c1cccc(S(=O)(=O)Nc2ccccc2)c1 = −26.9
O=C(Nc1ccc(Br)cc1)[C@@H]1C2C=CC(C2)[C@@H]1C(=O)O (stereo partly drawn) = 1.3

Please look at the items below and tell me SDH for each one, in order.
1. COc1ccc(NS(=O)(=O)c2cccc(C(=O)Nc3ccc(C)cc3)c2)cc1
2. O=C(O)CCC(=O)Nc1ccc(-c2nc3ccccc3o2)cc1
3. COc1ccc(Cl)cc1N(Cc1ccccc1)Cc1ccccc1
4. Fc1ccc(SCCc2ccccn2)cc1
5. COc1cc(CN(CCN(C)C)Cc2ccccc2)cc(OC)c1
6. O=[N+]([O-])c1ccc(Oc2ccc(S(=O)(=O)Nc3ccc4c(c3)OCCO4)cc2)cc1
7. O=C(O)C1CCCCC1C(=O)NC1CCCCCCC1 (stereo not drawn)

**Result**
1: −0.2; 2: 2.1; 3: 3.9; 4: 0.7; 5: −6.0; 6: 3.6; 7: 3.3

###

Test system: ubiquinone binding site of complex I (IQ)
test_protocol: High-throughput screen: ROS production from ubiquinone binding site of complex I (IQ), isolated skeletal muscle mitochondria
Assay type: biochemical, rat
condition_notes: Table 7; percent change in ROS from DMSO controls
endpoint: IQ
Answers are plain numbers.

Cc1cc(C)c(S(=O)(=O)N2CCCC2=O)c(C)c1 = 4.3

For every listed record, write down its IQ.
1. Cc1ccc(NC(=O)CCC(=O)O)cc1
2. Fc1ccc(N2CCN(CC(c3ccccc3)c3ccccc3)CC2)cc1
3. CN(C)CCN(Cc1ccccc1)Cc1ccc(C(F)(F)F)cc1

**Result**
1: −11.7; 2: 2.7; 3: −2.1

###

assayed_target: outer ubiquinone binding site of complex III (IIIQO) (Rattus norvegicus, UniProt P00159+P20788)
Construct: freshly isolated muscle mitochondria were assayed; from tissue; host or cells: rat skeletal muscle mitochondria (Wistar, Harlan Laboratories)
test_protocol: High-throughput screen: ROS production from outer ubiquinone binding site of complex III (IIIQO)
Format: biochemical
condition_notes: Table 8; percent change in ROS from DMSO controls
endpoint: IIIQO
Answers are plain numbers.

C=C(C)CN(CC)Cc1cc([N+](=O)[O-])ccc1Cl = −20.2
CCCN(CCO)Cc1ccc2c(c1)c1ccccc1n2CC = −7.5
Cc1ccccc1NS(=O)(=O)c1ccc(C2CCCCC2)cc1 = −2.7
COC(=O)c1ccc(CN(CCc2ccccc2)Cc2ccccc2)cc1 = −23.2
CN(C)CCN(Cc1ccccc1)Cc1ccc(C(F)(F)F)cc1 = −3.2
COc1cccc(CCNC2C3CC4CC(C3)CC2C4)c1 (stereo not drawn) = −1.8

// each molecule listed below needs its IIIQO
1. COc1ccccc1/C=C/c1nc(O)nc(O)c1[N+](=O)[O-]
2. Fc1ccc(SCCc2ccccn2)cc1
3. COc1cccc(/C=C/C(=O)c2c(O)cc(C)oc2=O)c1O
4. Cl.OC12CCCCC1C(c1cccc(Cl)c1)NCC2 (stereo not drawn)
5. Cc1ccc(CCSc2ccc(F)cc2)cn1
6. O=C(O)CSc1cccc(C(=O)Nc2ccc(Br)cc2)c1

**Result**
1. 6.6
2. −24.1
3. −6.0
4. −9.8
5. −34.9
6. 0.0

###

assayed_target: succinate dehydrogenase/complex II (SDH) (Rattus norvegicus, UniProt P21913+Q641Z9+Q6PCT8+Q920L2)
Construct: freshly isolated muscle mitochondria were assayed; from tissue; host or cells: rat skeletal muscle mitochondria (Wistar, Harlan Laboratories)
test_protocol: High-throughput screen: ROS production from succinate dehydrogenase/complex II (SDH)
Format: biochemical
condition_notes: Table 9; percent change in ROS from DMSO controls
Assign Satisfied whenever SDH does not fall below -0.1; assign Not satisfied whenever it does.

Consider the following illustrative entries.
O=C(O)CSc1cccc(C(=O)Nc2ccc(Br)cc2)c1 [Compound 47] = Satisfied
COc1cccc(/C=C/C(=O)c2c(O)cc(C)oc2=O)c1O [Compound 17] = Not satisfied
Cc1ccc(NS(=O)(=O)c2ccc(C3CCCCC3)cc2)cc1 [Compound 6] = Not satisfied
O=S(=O)(Nc1ccc(Br)cc1)c1ccc(C2CCCCC2)cc1 [Compound 8] = Satisfied
Cc1ccc(C(C)C)c(OCC(O)CN2CCN(Cc3ccccc3)CC2)c1.Cl.Cl (stereo not shown) [Compound 21] = Satisfied

**Query** Please tell me: is the compound O=C(COc1ccc(Cl)cc1Cl)Nc1ccc(F)cc1F [Compound 24] at or over -0.1 in terms of SDH?
**Result** Not satisfied

**Query** Quick check, SDH >= -0.1? CC1=CC(C)C(C2OCC(CN3CCCCC3)O2)C(C)C1 (stereo not shown) [Compound 13]
**Result** Not satisfied

###

For each record, write down the corresponding inhibition at 2.5 µM.
assayed_target: outer ubiquinone binding site of complex III (IIIQO) (Rattus norvegicus, UniProt P00159+P20788)
Construct: freshly isolated muscle mitochondria were assayed; from tissue; host or cells: rat skeletal muscle mitochondria (Wistar, Harlan Laboratories)
test_protocol: High-throughput screen: ROS production from outer ubiquinone binding site of complex III (IIIQO)
Type: biochemical
condition_notes: Table 7; percent change in ROS from DMSO controls; read-out: IIIQO
Give bare numbers, in %.

Please give inhibition at 2.5 µM for each item listed below.
1. O=C(Nc1ccccc1F)[C@@H]1C2C=CC(C2)[C@@H]1C(=O)O (some centres unmarked)
2. O=C(O)CSc1cccc(C(=O)Nc2ccc(Br)cc2)c1
3. CCSC1=C(C#N)C2(CCCC2)C(C#N)C(=O)N1 (centres unmarked)
4. O=C(O)CCC(=O)Nc1ccc(-c2nc3ccccc3s2)cc1
5. CCN1CCN(C2CCC(C(C)(C)C)CC2)CC1 (centres unmarked)

**Result**
1: -1.2; 2: 0; 3: -1.9; 4: 1; 5: 6.2

###

assayed_target: flavin binding site of complex I (IF) (Rattus norvegicus, UniProt Q5XIH3)
Construct: freshly isolated muscle mitochondria were assayed; from tissue; host or cells: rat skeletal muscle mitochondria (Wistar, Harlan Laboratories)
Sequence (Q5XIH3 21-464 limits assumed, one chain of several): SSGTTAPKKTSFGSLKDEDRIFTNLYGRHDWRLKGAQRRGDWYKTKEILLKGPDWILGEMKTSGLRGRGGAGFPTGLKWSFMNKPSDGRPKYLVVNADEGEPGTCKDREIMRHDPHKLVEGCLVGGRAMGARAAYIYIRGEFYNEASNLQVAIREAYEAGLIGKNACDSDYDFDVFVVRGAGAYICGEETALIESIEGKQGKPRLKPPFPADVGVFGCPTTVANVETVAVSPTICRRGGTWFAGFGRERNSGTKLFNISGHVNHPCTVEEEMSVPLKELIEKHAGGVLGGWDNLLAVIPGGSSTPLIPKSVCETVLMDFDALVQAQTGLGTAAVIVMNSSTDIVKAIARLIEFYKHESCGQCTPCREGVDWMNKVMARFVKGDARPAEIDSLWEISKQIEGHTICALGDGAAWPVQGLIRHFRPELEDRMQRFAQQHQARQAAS
test_protocol: High-throughput screen: ROS production from flavin binding site of complex I (IF)
Format: biochemical
condition_notes: Table 9; percent change in ROS from DMSO controls
What IF was measured for each of the following?

Worked cases, answers included:
CC(C)Cc1ccc(C(C)C(=O)Nc2ccccc2O)cc1 (stereo not drawn) = 0.2
CCN(CC)CCN(CC)Cc1ccc(Cl)cc1Cl = −19.7

Summary for this compound, "O=C(COc1ccc(Cl)cc1Cl)Nc1ccc(F)cc1F" : IF is −19.8

###

assayed_target: glycerol-3-phosphate dehydrogenase (GPDH) (Rattus norvegicus, UniProt P35571)
Construct: The activity of GPDH in intact mitochondria (0.3 mg/mL) was measured; from tissue; host or cells: rat skeletal muscle mitochondria (Wistar, Harlan Laboratories)
Sequence (P35571 43-727): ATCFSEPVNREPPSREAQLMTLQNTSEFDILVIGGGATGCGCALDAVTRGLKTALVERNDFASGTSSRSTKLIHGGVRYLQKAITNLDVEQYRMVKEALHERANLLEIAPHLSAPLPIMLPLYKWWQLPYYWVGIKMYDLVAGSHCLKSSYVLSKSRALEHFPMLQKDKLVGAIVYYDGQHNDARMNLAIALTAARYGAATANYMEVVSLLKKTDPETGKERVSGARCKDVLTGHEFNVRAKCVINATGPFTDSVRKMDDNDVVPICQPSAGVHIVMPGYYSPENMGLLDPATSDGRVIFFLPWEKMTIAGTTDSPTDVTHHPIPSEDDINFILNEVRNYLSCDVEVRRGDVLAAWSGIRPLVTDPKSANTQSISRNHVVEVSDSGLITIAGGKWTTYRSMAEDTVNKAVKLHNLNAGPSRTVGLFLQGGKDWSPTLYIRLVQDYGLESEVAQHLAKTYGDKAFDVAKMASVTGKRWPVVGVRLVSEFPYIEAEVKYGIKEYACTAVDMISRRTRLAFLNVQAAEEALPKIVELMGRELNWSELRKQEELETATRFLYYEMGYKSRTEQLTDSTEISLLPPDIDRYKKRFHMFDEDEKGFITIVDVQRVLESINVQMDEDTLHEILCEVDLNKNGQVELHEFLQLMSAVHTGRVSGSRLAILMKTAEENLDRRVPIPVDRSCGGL
test_protocol: High-throughput screen: ROS production from glycerol-3-phosphate dehydrogenase (GPDH)
Type: biochemical
Parameters: dose or concentration left out as unconfirmed
condition_notes: Table 7; percent change in ROS from DMSO controls
endpoint: inhibition (%)
Answers are plain numbers, in %.

Fc1ccc(N2CCN(CC(c3ccccc3)c3ccccc3)CC2)cc1 = 4.7

Could you tell me inhibition for each of these molecules? They are listed below.
1. O=C(O)CCC(=O)Nc1ccc(-c2nc3ccccc3s2)cc1
2. O=C(O)CCC(=O)Nc1cccc(-c2nc3ccccc3[nH]2)c1
3. CN(C)CCN(Cc1ccccc1)Cc1ccc(C(F)(F)F)cc1

**Result**
1. 1.9
2. 48.3
3. 2.4

###

assayed_target: flavin binding site of complex I (IF) (Rattus norvegicus, UniProt Q5XIH3)
Construct: freshly isolated muscle mitochondria were assayed; from tissue; host or cells: rat skeletal muscle mitochondria (Wistar, Harlan Laboratories)
test_protocol: High-throughput screen: ROS production from flavin binding site of complex I (IF)
Type: biochemical
condition_notes: Table 9; percent change in ROS from DMSO controls
The label Satisfied is reserved for IF strictly under 0.5; Not satisfied covers values equal to or above it.

Consider the worked cases shown below.
CC1CC(C)(C)N(C=O)c2ccccc21 (centres unmarked) = Not satisfied
COc1ccc(NS(=O)(=O)c2cccc(C(=O)Nc3ccc(C)cc3)c2)cc1 = Not satisfied

**Query** Given the entry "O=C(Nc1ccccc1C(=O)O)c1ccccc1" , would its reported IF be below 0.5?
**Result** Satisfied

**Query** Quick check: IF of "Cc1ccccc1NS(=O)(=O)c1ccc(C2CCCCC2)cc1" under 0.5?
**Result** Satisfied

###

assayed_target: glycerol-3-phosphate dehydrogenase (GPDH) (Rattus norvegicus, UniProt P35571)
Construct: The activity of GPDH in intact mitochondria (0.3 mg/mL) was measured; from tissue; host or cells: rat skeletal muscle mitochondria (Wistar, Harlan Laboratories)
test_protocol: High-throughput screen: ROS production from glycerol-3-phosphate dehydrogenase (GPDH)
Type: biochemical
condition_notes: Table 9; percent change in ROS from DMSO controls
Classification by GPDH follows these ranges: low value: < -4; medium value: ≥ -4 and < -1; high value: ≥ -1

Known results for compounds:
c1cc2c3c(ccc(CSCCc4ccncc4)c3c1)CC2 = low value
CC1CC(C)(C)N(C=O)c2ccccc21 (stereo not shown) = high value
Cl.OC12CCCCC1C(c1cccc(Cl)c1)NCC2 (stereo not shown) = low value

**Query** Quick check: band for "COc1ccccc1/C=C/c1nc(O)nc(O)c1[N+](=O)[O-]"
**Result** high value

**Query** # bin label for "O=C(O)/C=C/C(=O)Nc1ccc(/C=C/c2ccccc2)cc1"
**Result** low value

**Query** In plain terms, what class is "Cc1ccc(CCSc2ccc(F)cc2)cn1" ?
**Result** low value

**Query** Sort into band: "COc1ccc(NS(=O)(=O)c2cccc(C(=O)Nc3ccc(C)cc3)c2)cc1"
**Result** low value

**Query** Hi, small favor: classify "CN(C)CCN(Cc1ccccc1)Cc1ccc(C(F)(F)F)cc1" by its GPDH when you get a moment.
**Result** medium value

**Query** Category of "Cc1ccc(C)c(CN(CCCN(C)C)CCCN(C)C)c1" :
**Result** high value

**Query** Exercise: read the entry "O=S(=O)(Nc1ccc(Br)cc1)c1ccc(C2CCCCC2)cc1" and state which class it falls under.
**Result** medium value

**Query** Place this compound in its band: CC(C)Cc1ccc(C(C)C(=O)Nc2ccccc2O)cc1 (stereo not shown)
**Result** high value

**Query** Which bin, given its GPDH, does CCN1CCN(C2CCC(C(C)(C)C)CC2)CC1 (stereo not shown) occupy?
**Result** medium value

**Query** Band for "CC(C)(C)NS(=O)(=O)c1ccc2c(c1)C(=O)c1ccccc1C2=O" ?
**Result** high value

**Query** Hi there! Could you help me figure out the category for "CCCCN(Cc1ccccc1)Cc1cccc(Oc2ccc(Cl)cc2)c1" please?
**Result** medium value
